# assay-comment: protein stability index of a GFP-peptide fusion (yeast GPS) (PSI 1-4); higher = more stable; sorted into four equal gates, so the index is relative within each strain
# recorded-conditions: pdr5∆
protein stability index of 3 or higher: 1. Under 3: -1.

Check out these entries, answers already filled in.
macromolecule-sequence	class-name
ALEFLNTTLQDNVSFIE [REC8]	1
LTSPAFGPHVDVNDVLT [GRR1]	1
VPRKFKHFIQGGSFGNR [RPL7A]	-1

For this sequence, is measured protein stability index 3 or higher? RHFGMGPHKGKAPRILS [RPL18A]
-1

For this sequence, is measured protein stability index 3 or higher? IAAKLINSGLYSVLLES [YML103C/NUP188]
-1

For this sequence, is measured protein stability index 3 or higher? NLEIPAYEFDGDKVIVG [RIP1]
-1
